experimental_target: Recoverin
assay_notes: BSI free-solution binding assay
test_conditions: receptor Recoverin
measurement_kind: pKd
Please treat pKd as minus the base-10 logarithm of the molar concentration.

Look up pKd: `[Ca+2]`
6.13

// provenance: patent US11143649B2
